# PROCEDURE_TEXT: gradient 5% acetonitrile 3 min, to 50% in 2 min, to 85% in 15 min, held 3 min, 100 µL/min
# TEST_PARAMETERS: column: Zorbax Extend-C18 2.1 x 50 mm; eluents: water / acetonitrile, 0.1% formic acid
Examples of compounds with documented RP-LC retention time follow.

COMPOUND | RP-LC retention time
Cc1ccccc1NS(=O)(=O)c1cc2c(s1)CCN(C(=O)C1CCC1)C2 | 832 s
O=C(CN1C(=O)NC2(CCCCC2)C1=O)Nc1ccc(Br)cc1F | 826 s
Cc1ccc(CNC(=O)C2(C)CN(S(C)(=O)=O)CC(=O)N2CCC(C)C)cc1 (stereo not drawn) | 865 s
O=C(NC1CCCCC1)C1CCCN(c2nc3ccsc3c(=O)n2Cc2ccccc2)C1 (stereo not drawn) | 957 s
O=C(Nc1cccc(Cl)c1)C1CCCN(S(=O)(=O)c2c[nH]c(C(=O)N3CCCCCC3)c2)C1 (stereo not drawn) | 964 s
Cc1ccc2c(c1)NC(=O)C(CC(=O)N1CCN(c3cccc(C)c3C)CC1)CO2 (stereo not drawn) | 781 s
CCOC(=O)c1nc(N2CCN(c3ccccn3)CC2)c2c(C)noc2n1 | 596 s
O=C(Cc1csc(NC(=O)c2cnccn2)n1)NCCc1c[nH]c2ccccc12 | 654 s
Cc1ccc(-c2cc(C(N)=O)[nH]n2)cc1C | 690 s
O=C(Nc1nnc(-c2cc3ccccc3o2)o1)c1ccc([N+](=O)[O-])o1 | 792 s
Cc1nc2cccnc2n1C1CCN(C(=O)c2cccc(Cl)c2)C1 (stereo not drawn) | 602 s
CCCn1cc(CCNS(=O)(=O)c2ccc(Cl)cc2)c2cccnc21 | 891 s
CCS(=O)(=O)N1CCCN(C2=NS(=O)(=O)C(c3ccc(C)cc3)=C2C)CC1 | 827 s
COc1cccc(NC(=O)Cn2nc3c(Oc4ccc(F)cc4)nccn3c2=O)c1 | 812 s
COc1ccc(OC)c(NC(=O)CN2C(=O)COc3ccc(C(=O)N4CCCC4)cc32)c1 | 682 s
COc1ccccc1CCC(=O)N1CCCn2nc(-c3ccc(C)cc3)cc2C1 | 1020 s
COc1ccc(S(=O)(=O)N2CCN(c3cc(C)nc(NC4CCCCC4)n3)CC2)cc1OC | 756 s
Cc1cc(NC(=O)C2CCN(S(=O)(=O)c3cn(C)cn3)CC2)ccc1Br | 802 s
COc1cccc2cc(C(=O)Nc3ccc(-c4ccc(N5CCCC5)nn4)cc3)oc12 | 607 s
Cc1sc(-c2nnc(C(C)C)o2)cc1NS(C)(=O)=O | 808 s
COc1ccc(-c2ccnc3nc(Cc4ccc(F)cc4)nn23)cc1OC | 851 s
O=C(NCc1csc(-c2cccs2)n1)C1CCN(C(=O)c2cccc(Cl)c2)CC1 | 802 s
CC(=O)c1ccc(NC(=O)Cn2nc3c4cc(-c5ccccc5)nn4ccn3c2=O)cc1 | 818 s
